Assay Target: EBI2 (Homo sapiens)
Sequence (P32249 whole entry): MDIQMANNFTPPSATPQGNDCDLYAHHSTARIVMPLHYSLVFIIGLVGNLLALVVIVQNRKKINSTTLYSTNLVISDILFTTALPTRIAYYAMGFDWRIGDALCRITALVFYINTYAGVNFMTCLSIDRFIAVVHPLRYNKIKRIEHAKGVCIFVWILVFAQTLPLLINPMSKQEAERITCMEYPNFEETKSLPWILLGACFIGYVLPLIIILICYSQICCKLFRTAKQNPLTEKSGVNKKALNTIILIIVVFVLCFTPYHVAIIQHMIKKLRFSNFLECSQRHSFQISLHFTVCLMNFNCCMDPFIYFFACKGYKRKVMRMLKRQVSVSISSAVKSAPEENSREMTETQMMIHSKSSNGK
Protocol Notes: Radioligand binding to membranes from EBI2 expressing CHO cells
Measured Property: IC50

Inquiry: Notebook: pull reported IC50 for EBI2 (Homo sapiens), entry CC(C)CCC[C@@H](C)[C@H]1CC[C@H]2[C@@H]3CC=C4C[C@@H](O)CC[C@]4(C)[C@H]3CC[C@]12C [cholesterol]
Reply text: > 10 µM

----------
Each item that follows carries a reported pIC50.
Assay Target: UniProtKB P32249
Protocol Notes: Radioligand binding to membranes from EBI2 expressing CHO cells
Assay Setup: read-out: [^3H]-7α, 25-OHC Binding IC50; displacement of 10 nM 3H-7α, 25-OHC from membranes of EBI2 expressing CHO cells; n = 3-4, ± standard deviation
pIC50: −log10 of the molar value.

See these solved cases before continuing.
[[record]]
compound = "C[C@@H](CO)CCC[C@@H](C)[C@H]1CC[C@H]2[C@@H]3[C@H](O)C=C4C[C@@H](O)CC[C@]4(C)[C@H]3CC[C@]12C [7α, 27-OHC]"
measured_property = "pIC50"
meas_value = 6.44

[[record]]
compound = "C[C@H](CCCC(C)(C)O)[C@H]1CC[C@H]2[C@@H]3CC=C4C[C@@H](O)CC[C@]4(C)[C@H]3CC[C@]12C [25-OHC]"
measured_property = "pIC50"
meas_value = "< 5.00"


Next compound, please.
Inquiry: Quick check: pIC50 of C[C@@H](CO)CCC[C@@H](C)[C@H]1CC[C@H]2[C@@H]3[C@@H](O)C=C4C[C@@H](O)CC[C@]4(C)[C@H]3CC[C@]12C [7β, 27-OHC] ?
Reply text: < 5.00

Numbers sourced from paper PMC4297623.
